system: MOLM-13 cells; test: Test 2: inhibition of cell proliferation, MOLM-13; type: cell-based; conditions: Homo sapiens, 7 days, PrestoBlue cell viability
reportedEndpoint: IC50 (nM)
Express your answer in nM, writing the number without its unit.

What value of IC50 has been reported for the following compound? C=C1C[C@H]2CC[C@@H]1N[C@@H]2C(=O)N1CC2(C1)CN(c1ncncc1Oc1ccc(F)cc1C(=O)N(C(C)C)C(C)C)C2
80

Suppose we examine the compound CC(C)N(C(=O)c1cc(F)ccc1Oc1cncnc1N1CC2(CCN(C(=O)[C@H]3N[C@H]4CC[C@@H]3C(=O)C4)CC2)C1)C(C)C ; what IC50 value has been reported?
250

Reported IC50 for CC(C)N(C(=O)c1cc(F)ccc1Oc1cncnc1N1CC2(CN(C(=O)[C@H]3N[C@H]4CC[C@@H]3C[C@@H]4CC3CC3)C2)C1)C(C)C : what is it?
10

Form field: reported IC50 of C=C1C[C@H]2CC[C@@H]1N[C@@H]2C(=O)N1CCC2(CC1)CN(c1ncncc1Oc1ccc(F)cc1C(=O)N(C(C)C)C(C)C)C2
110

Name the reported IC50 value associated with the compound CC(C)N(C(=O)c1cc(F)ccc1Oc1cncnc1N1CCC2(CCN(C(=O)[C@H]3N[C@H]4CC[C@@H]3CC4)C2)C1)C(C)C (stereo partly drawn)
810
